src = paper PMC11575396

target_entity: GI ProPol (Southampton virus, UniProt Q04544, E1280A)
assay_summary: De novo polymerase inhibition assay (PicoGreen dsRNA formation)
readout: IC50 (µM)

smiles_entry: Cc1nc(/N=N/c2cc(S(=O)(=O)O)c3cc([N+](=O)[O-])cc(S(=O)(=O)O)c3c2)c(COP(=O)(O)O)c(C=O)c1O
target_entity: GI ProPol (Southampton virus, UniProt Q04544, E1280A)
readout: IC50
measurement_units: µM
readout_number: 6.8
